system: HIV-1 protease (Human immunodeficiency virus type 1 group M subtype B, UniProt P04585)
Construct: made in house; host or cells: E. coli K12 L507/pHP10D (NRRL B-18560)
experimental_protocol: biochemical
details: read-out: Fluorescence Assay IC50 (converted)

molecule | system | IC50 [µM]
N#CC[C@H](NC(=O)OCc1ccccc1)C(=O)N[C@@H](Cc1ccccc1)[C@@H]1O[C@@H]1[C@H](Cc1ccccc1)NC(=O)[C@H](CC#N)NC(=O)OCc1ccccc1 [Example 6] | HIV-1 protease (Human immunodeficiency virus type 1 group M subtype B, UniProt P04585) | 0.88
CC(C)C[C@H](NC(=O)OCc1ccccn1)C(=O)N[C@@H](Cc1ccccc1)[C@@H]1O[C@@H]1[C@H](Cc1ccccc1)NC(=O)[C@H](CC(C)C)NC(=O)OCc1ccccn1 [Example 13] | HIV-1 protease (Human immunodeficiency virus type 1 group M subtype B, UniProt P04585) | 2.88
CC[C@H](NC(=O)N(C)Cc1ccccn1)C(=O)N[C@@H](CCCc1ccccc1)[C@@H]1O[C@@H]1[C@H](CCCc1ccccc1)NC(=O)[C@H](CC)NC(=O)N(C)Cc1ccccn1 [Example 37] | HIV-1 protease (Human immunodeficiency virus type 1 group M subtype B, UniProt P04585) | 0.206
